The reported numbers originate from patent US9120812B2.

# ASSAYED_SYSTEM: PI3Kα (p110α/p85α) (Homo sapiens (Human), UniProt P42336)
# Sequence (P42336 whole entry): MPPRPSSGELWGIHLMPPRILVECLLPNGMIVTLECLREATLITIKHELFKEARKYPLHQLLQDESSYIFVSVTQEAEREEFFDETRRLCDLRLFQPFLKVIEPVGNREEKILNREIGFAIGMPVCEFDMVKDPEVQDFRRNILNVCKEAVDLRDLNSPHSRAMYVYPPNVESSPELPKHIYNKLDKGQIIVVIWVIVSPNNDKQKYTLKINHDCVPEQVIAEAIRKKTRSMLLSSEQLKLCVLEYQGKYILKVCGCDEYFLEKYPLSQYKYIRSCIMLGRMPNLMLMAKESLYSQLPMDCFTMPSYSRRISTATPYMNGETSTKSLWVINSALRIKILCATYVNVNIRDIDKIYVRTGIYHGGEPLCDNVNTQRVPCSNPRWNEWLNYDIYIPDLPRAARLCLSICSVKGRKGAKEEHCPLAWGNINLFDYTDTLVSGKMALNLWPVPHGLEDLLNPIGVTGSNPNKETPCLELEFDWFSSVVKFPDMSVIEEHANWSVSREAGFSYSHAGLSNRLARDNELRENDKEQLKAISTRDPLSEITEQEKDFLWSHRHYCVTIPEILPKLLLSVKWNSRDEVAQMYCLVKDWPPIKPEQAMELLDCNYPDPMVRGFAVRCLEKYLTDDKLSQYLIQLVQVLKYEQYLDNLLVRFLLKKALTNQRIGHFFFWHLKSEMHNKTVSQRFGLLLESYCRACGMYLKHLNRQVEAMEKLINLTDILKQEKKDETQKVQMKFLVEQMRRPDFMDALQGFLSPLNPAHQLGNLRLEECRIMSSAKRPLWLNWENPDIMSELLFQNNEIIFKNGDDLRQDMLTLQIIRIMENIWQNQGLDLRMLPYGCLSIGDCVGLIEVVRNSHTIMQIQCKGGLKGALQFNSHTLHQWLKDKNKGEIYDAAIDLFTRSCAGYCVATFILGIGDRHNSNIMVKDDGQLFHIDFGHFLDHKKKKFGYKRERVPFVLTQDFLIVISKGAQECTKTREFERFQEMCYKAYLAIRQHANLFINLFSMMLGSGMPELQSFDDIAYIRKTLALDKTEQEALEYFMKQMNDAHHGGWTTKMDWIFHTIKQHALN
# Sequence (P27986 whole entry partner): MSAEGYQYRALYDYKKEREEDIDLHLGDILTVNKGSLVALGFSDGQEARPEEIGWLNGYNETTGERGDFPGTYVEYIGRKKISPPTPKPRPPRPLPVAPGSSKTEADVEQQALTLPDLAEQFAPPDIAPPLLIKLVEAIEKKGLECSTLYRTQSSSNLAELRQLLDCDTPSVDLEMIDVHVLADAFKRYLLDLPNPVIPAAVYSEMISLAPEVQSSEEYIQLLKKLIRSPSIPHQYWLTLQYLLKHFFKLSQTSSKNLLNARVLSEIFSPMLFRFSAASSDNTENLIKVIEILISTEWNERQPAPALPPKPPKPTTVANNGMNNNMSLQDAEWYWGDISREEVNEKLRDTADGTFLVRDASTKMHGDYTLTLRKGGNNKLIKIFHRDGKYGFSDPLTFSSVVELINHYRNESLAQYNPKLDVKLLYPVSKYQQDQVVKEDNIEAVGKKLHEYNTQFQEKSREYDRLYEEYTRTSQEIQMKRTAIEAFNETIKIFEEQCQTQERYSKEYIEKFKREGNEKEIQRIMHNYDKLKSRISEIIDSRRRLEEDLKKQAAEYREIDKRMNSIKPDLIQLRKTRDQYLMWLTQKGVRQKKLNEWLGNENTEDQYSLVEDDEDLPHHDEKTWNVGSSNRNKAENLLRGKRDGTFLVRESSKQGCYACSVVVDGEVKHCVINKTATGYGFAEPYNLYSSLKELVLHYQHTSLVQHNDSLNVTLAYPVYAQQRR
# EXPERIMENT_SUMMARY: PI3Kα enzymatic test by measuring the consumption of ATP
# Format: biochemical
MEASURED_METRIC: PI3Ka IC50

[[record]]
compound = "CCN1CC(C)(C)Oc2nc(N3C4CCC3COC4)nc(-c3ccc(NC(=O)NC4CC4)c(F)c3)c2C1=O [Example 254]"
assayed_system = "PI3Kα (p110α/p85α) (Homo sapiens (Human), UniProt P42336)"
result = ">10 µM"

[[record]]
compound = "CCN1CC(C)(C)Oc2nc(N3CCOC[C@@H]3C)nc(-c3ccc(NC(=O)Nc4ccccn4)c(F)c3)c2C1=O [Example 192]"
assayed_system = "PI3Kα (p110α/p85α) (Homo sapiens (Human), UniProt P42336)"
result = "1.31 µM"

[[record]]
compound = "CCN1CC(C)(C)Oc2nc(N3CC4CCC(C3)O4)nc(-c3ccc(NC(=O)Nc4ccnc5[nH]ccc45)c(F)c3)c2C1=O [Example 86]"
assayed_system = "PI3Kα (p110α/p85α) (Homo sapiens (Human), UniProt P42336)"
result = ">10 µM"

[[record]]
compound = "CCN1CC(C)(C)Oc2nc(N3CCOC[C@@H]3C)nc(-c3ccc(NC(=O)Nc4ccncc4)cc3F)c2C1=O [Example 12]"
assayed_system = "PI3Kα (p110α/p85α) (Homo sapiens (Human), UniProt P42336)"
result = "0.64 µM"

[[record]]
compound = "COc1ccc(NC(=O)Nc2ccc(-c3nc(N4CC5CCC(C4)O5)nc4c3C(=O)N(C)CC(C)(C)O4)cc2)nc1 [Example 54]"
assayed_system = "PI3Kα (p110α/p85α) (Homo sapiens (Human), UniProt P42336)"
result = "3 µM"

[[record]]
compound = "CCN1CC(C)(C)Oc2nc(N3CC4CCC(C3)O4)nc(-c3ccc(NC(=O)Nc4ccc(C)cn4)cc3)c2C1=O [Example 34]"
assayed_system = "PI3Kα (p110α/p85α) (Homo sapiens (Human), UniProt P42336)"
result = ">10 µM"

[[record]]
compound = "CCN1CC(C)(C)Oc2nc(N3CC4CCC(C3)O4)nc(-c3ccc(NC(=O)OCCO)cc3F)c2C1=O [Example 246]"
assayed_system = "PI3Kα (p110α/p85α) (Homo sapiens (Human), UniProt P42336)"
result = ">10 µM"

